Consider the following molecules and their measured IC50 readings.
# Target System: GST-RIPK1 (recombinant GST-RIPK1 kinase domain (residues 1-327)) (Homo sapiens)
# Construct: recombinant GST-RIPK1 kinase domain (residues 1-327) enzyme
# Sequence (Q13546 1-327): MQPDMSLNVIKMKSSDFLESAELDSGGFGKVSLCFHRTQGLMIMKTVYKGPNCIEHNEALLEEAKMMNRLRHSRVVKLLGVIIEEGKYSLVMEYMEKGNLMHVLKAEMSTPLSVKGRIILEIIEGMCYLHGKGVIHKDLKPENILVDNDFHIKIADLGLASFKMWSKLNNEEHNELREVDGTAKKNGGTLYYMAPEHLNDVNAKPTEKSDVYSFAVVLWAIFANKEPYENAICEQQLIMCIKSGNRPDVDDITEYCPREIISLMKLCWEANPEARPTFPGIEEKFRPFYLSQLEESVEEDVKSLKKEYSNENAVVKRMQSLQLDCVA
# Assay Notes: RIPK1-ADP-Glo enzymatic assay
# Condition Summary: 25 nM GST-RIPK1, 300 μM ATP, 3 μM dephosphorylated-MBP; 30 minutes pre-incubation, 150 minutes reaction; ten-point titration
Measured Quantity: IC50 (nM)

molecule="CC(C(=O)N1C[C@@H]2C[C@H]1c1cncc(C#N)c1O2)(C(F)F)C1CC1 (single isomer, unassigned) [Compound 1-89]" scale_unit=nM recorded_value=43
molecule=C=CC(C)(C)C(=O)N1C[C@@H]2C[C@H]1c1cncc(C#N)c1O2 scale_unit=nM recorded_value=30
molecule=N#Cc1cncc2c1O[C@H]1C[C@@H]2N(C(=O)C2(C(F)(F)F)CCC2)C1 scale_unit=nM recorded_value=62
molecule=CC(C)(C(=O)N1C[C@@H]2C[C@H]1c1cncc(C#Cc3ccccc3)c1O2)C(F)F scale_unit=nM recorded_value=66
molecule=O=C(N1C[C@@H]2C[C@H]1c1cncc(C#Cc3cncnc3)c1O2)C12CCC(C(F)(F)F)(CC1)C2 scale_unit=nM recorded_value=15
molecule=CCCC12CC(C(=O)N3C[C@@H]4C[C@H]3c3cncc(C#N)c3O4)(C1)C2 scale_unit=nM recorded_value=92
molecule=N#Cc1cncc2c1O[C@H]1C[C@@H]2N(C(=O)C23CCC(C(F)F)(CC2)C3)C1 scale_unit=nM recorded_value=24
molecule=N#Cc1cncc2c1O[C@H]1C[C@@H]2N(C(=O)C2(C(F)(F)F)CC2)C1 scale_unit=nM recorded_value=545
molecule=CC(C)(C(=O)N1C[C@@H]2C[C@H]1c1cncc(C#Cc3cnc4c(Cl)cnn4c3)c1O2)C(F)F scale_unit=nM recorded_value=22
molecule=CCC12CC(C(=O)N3C[C@@H]4C[C@H]3c3cncc(C#N)c3O4)(C1)C2 scale_unit=nM recorded_value=57
molecule=CC(C)(C(=O)N1C[C@@H]2C[C@H]1c1cncc(C#CCC3CCOCC3)c1O2)C(F)F scale_unit=nM recorded_value=150
molecule="CCC(C)(C#N)C(=O)N1C[C@@H]2C[C@H]1c1cncc(C#N)c1S2 (single isomer, unassigned) [Compound 4-10]" scale_unit=nM recorded_value=43
molecule=O=C(N1C[C@@H]2C[C@H]1c1cncc(C#Cc3ccccn3)c1O2)C12CCC(C(F)(F)F)(CC1)C2 scale_unit=nM recorded_value=73
molecule=CC(C)(C(=O)N1C[C@@H]2C[C@H]1c1cncc(C#N)c1S2)C(F)F scale_unit=nM recorded_value=24
molecule=N#Cc1cncc2c1O[C@H]1C[C@@H]2N(C(=O)C23CC(F)(C2)C3)C1 scale_unit=nM recorded_value=84
